PROPERTY: melting point

Consider Cc1cc(Cl)cc(COc2cccc(OCc3ccc4cc(F)ccc4n3)c2)c1OCC(=O)O . Its measured melting point is 140 to 141 °C

Lab note: C[C@@H](n1cnc2cc(C(F)(F)F)ccc2c1=O)[C@](O)(Cn1cncn1)c1ccc(Cl)cc1Cl gave melting point of 158 to 160 °C

Documented melting point of C[C@@H]1CN(CCCn2c3ccc(O)cc3c3c4c(c(-c5ccccc5Cl)cc32)C(=O)NC4=O)C[C@H](C)N1 : 165 to 172 °C

The compound identified as CS(=O)(=O)Nc1cc2occc(=O)c2cc1Oc1ccc(F)cc1F registered its melting point at 182 to 183 °C

* * *

Task for the reader: assign each of the following molecules its reported melting point.

Reported melting point of CCOC(=O)C(C=O)Cc1ccc(OC)nc1 (stereo unspecified) : 91.5 to 94 °C

Lab book: melting point of CC1(CN2CCN(c3cccc4c3OCCO4)CC2)N=C(c2ccccc2)NC1=O (stereo unspecified) noted as 80 to 85 °C

Quick note, melting point for O=C1c2ccccc2C(=O)c2c1c(O)c1ccccc1c2O landed at 214 to 216 °C

The molecule listed as CCCC(=Cc1cccs1)[N+](=O)[O-] has a reported melting point of 25 to 25.5 °C

Noted for CS(=O)(=O)c1cccc(NC(=O)c2cnn3c(C(F)(F)F)cc(-c4ccc(F)c(F)c4)nc23)c1 : its melting point reads 256 °C

Consider Cc1ccccc1-c1cc(F)cc2c1NC(CN)CO2 (stereo unspecified) . Its measured melting point is 78 °C

Reported melting point of O=S(=O)(Nc1cccc(CCOCc2ccc(-c3ccc(F)cc3)cc2F)c1)C(F)(F)F : 65 to 67 °C

Memo: CC(c1cc(F)cc(F)c1)n1ncc(-c2ccc(S(N)(=O)=O)cc2)c(-c2ccc(F)cc2)c1=O (stereo unspecified) , reported melting point: 139 to 141 °C

Summary for this molecule, COc1ccc2c(c1)c(CC(=O)ON(C(N)=O)C(C)c1cc3ccccc3s1)c(C)n2C(=O)c1ccc(Cl)cc1 (stereo unspecified) : melting point is 153 to 155 °C

Summary for this molecule, CCC(CC)N(Cc1ccc(C(=O)O)cc1)S(=O)(=O)c1ccc(OC)cc1 : melting point is 86 to 87 °C

Value of measured melting point for the entry COc1ccc(C(=O)N2c3ccccc3C(N3CCCc4cc(C)ccc43)CC2C)cc1OC (stereo unspecified) : 139 to 140 °C

* * *

PROPERTY: melting point

Reported melting point of CCOC(=O)c1oc2cccc(OC)c2c1C : 67 to 69 °C

melting point measured on Cn1c(=O)c(NC(=O)Nc2ccc(F)cc2F)c(-c2ccccc2Cl)c2cccnc21 = 225 to 226 °C

melting point reported for this compound COc1ccc(CSc2nnc(-c3ccnc(NC(=O)CCc4ccccc4)c3)o2)cc1C(F)(F)F : 180 to 181 °C

Reported melting point of CN(c1cccc(-c2ccnc3c([N+](=O)[O-])cnn23)c1)S(=O)(=O)c1ccccc1 : 177 to 179 °C

So, O=C(CSc1ccc(Cl)cc1)c1ccccc1 ? Its melting point was 65 to 66 °C

Sure, the documented melting point for COc1ccc2cc(-c3nc(-c4ccccc4)no3)c(=O)oc2c1 is 215 °C

Briefly, melting point measured for CC1(C)C(=O)Nc2cc3[nH]c(-c4c[nH]c5ccccc45)nc3cc21 : 243 to 245 °C

Per the records, this compound ( CCCCn1nc2c(N)nc3ncccc3c2c1CC(C)(C)O ) has melting point equal to 232 to 235 °C

Noted for Nc1cc(CO)cc(S(N)(=O)=O)c1Oc1cccc(C(F)(F)F)c1 : its melting point reads 133 to 134 °C

Record OCc1cn(-c2ccccc2)nc1OCc1ccccc1 , field melting point: 93 to 94 °C

# melting point of O=c1c(Br)c(OCc2ccc(F)cc2)ccn1Cc1cccc(F)c1 = 180 to 183 °C

Per the record, CC(C)N(Cc1ccc(Cl)cc1)C(=O)Nc1ccccc1 has melting point of 109 to 111 °C

melting point reading for N#CC(C#N)C(=O)c1ccsc1 : 132 to 133 °C

Data provenance: a melting point compilation (Tetko et al.; mined from patent text by program, amines drawn as free bases though some values may be those of a salt)
